I'd be grateful if you could share measured composite z-score for these entries.
Molecular target: Concanavalin-A (Canavalia ensiformis) (UniProt P02866)
Sequence (P02866 whole entry, looked up): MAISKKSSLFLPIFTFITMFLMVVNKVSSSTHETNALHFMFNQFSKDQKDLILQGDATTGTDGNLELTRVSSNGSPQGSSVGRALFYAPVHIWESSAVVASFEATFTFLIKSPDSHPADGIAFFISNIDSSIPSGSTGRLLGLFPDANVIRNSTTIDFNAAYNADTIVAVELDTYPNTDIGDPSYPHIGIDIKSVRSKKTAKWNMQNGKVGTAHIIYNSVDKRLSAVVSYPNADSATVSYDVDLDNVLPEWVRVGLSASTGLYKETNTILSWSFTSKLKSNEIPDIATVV
Test: ConA small-molecule binders, primary screen, artefact control for SMM control protein annotation, biochemical, small-molecule microarray, Alexa647 label, 635 nm (AID 1127);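 also: z combines 667 nm emission intensity with signal-to-noise across three replicate slides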
Conditions: ConA-A647 binding fluorescence, higher = more signal
One number for each entry.

Please review the following examples before continuing.
CC(C)C[C@@H]1NC(=O)[C@H]2C[C@@H](C(=O)NCCCCCNC(=O)CS)[C@@H](c3ccc(O)cc3)N2C1=O = 0.885
COCCOC(=O)N1C(=O)[C@@]2(c3cc(C#Cc4ccc(OC)cc4)ccc31)[C@H](C(=O)Nc1nc3ccccc3s1)[C@H]1C(=O)O[C@H](c3ccccc3)[C@H](c3ccccc3)N1[C@@H]2c1ccccc1OCCO = 1.11

INPUT: Bench note: what composite z-score did CC(C)(C)OC(=O)CC[C@]1(C(N)=O)N=C(c2ccc(OCCCO)cc2)O[C@H]1c1ccccc1CN=[N+]=[N-] show?
OUTPUT: 0.831

Source of measurements: PubChem BioAssay
